Measured pIC50 of individual entries
Target: kinase domain of IRE1 alpha (His-tagged kinase dead construct KR, AA G547-L977, D688N) (Homo sapiens (Human), UniProt O75460, D688N)
Sequence (O75460 547-977 D688N): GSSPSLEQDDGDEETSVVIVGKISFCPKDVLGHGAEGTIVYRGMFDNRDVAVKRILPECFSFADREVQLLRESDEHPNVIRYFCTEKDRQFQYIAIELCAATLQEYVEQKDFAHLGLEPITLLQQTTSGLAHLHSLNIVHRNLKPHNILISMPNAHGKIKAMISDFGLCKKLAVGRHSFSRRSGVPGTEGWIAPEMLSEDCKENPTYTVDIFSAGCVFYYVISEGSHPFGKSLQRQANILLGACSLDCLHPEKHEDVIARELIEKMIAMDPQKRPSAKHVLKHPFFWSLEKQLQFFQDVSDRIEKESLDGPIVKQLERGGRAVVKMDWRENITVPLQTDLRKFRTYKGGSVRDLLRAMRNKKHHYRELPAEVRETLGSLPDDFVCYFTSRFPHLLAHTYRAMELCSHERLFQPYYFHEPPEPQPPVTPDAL
Assay: IRE1α TR-FRET competition binding assay
Conditions: competition with Kinase Tracer 236, 0.1 μM; one hour at room temperature
Structures can show the parent of a compound that is named as a salt.
Formally, pIC50 is defined as -log10 of the concentration c, with c in mol/L.

# annotated cases, reported pIC50 shown
O=S(=O)(Cc1ccc(Cl)cc1)Nc1ccc(Oc2ncccc2-c2ccnc(N[C@H]3CCCNC3)n2)c(F)c1F ... 8.23
Cc1cc(NS(=O)(=O)Cc2ccccc2)c(F)c(F)c1Oc1ncccc1-c1ccnc(N[C@H]2CCCNC2)n1 ... 8.35
O=C(Nc1ccc(Oc2ncccc2-c2ccnc(N[C@H]3CCCNC3)n2)c(F)c1F)C1CC12CC2 (some centres unmarked) [Compound 151, hydrochloride] ... 7.08
Cc1cc(NS(=O)(=O)C2CCCCC2)cc(F)c1Oc1ncccc1-c1ccnc(N[C@H]2CCCNC2)n1 [Compound 117, hydrochloride] ... 7.68

Moving on to the next compound.
Quick one: pIC50 of CCCS(=O)(=O)Nc1cc(C)c(Oc2ncccc2-c2ccnc(N[C@H]3CC[C@H](N)CC3)n2)c(F)c1 [Compound 118, hydrochloride] ?
7.33

---

Target: kinase domain of IRE1 alpha (His-tagged kinase dead construct KR, AA G547-L977, D688N) (Homo sapiens (Human), UniProt O75460, D688N)
Experiment: IRE1α TR-FRET competition binding assay
Settings: competition with Kinase Tracer 236, 0.1 μM; one hour at room temperature
Mark 1 (yes) for IC50 under 5 nM, 0 (no) if at or over.

Quick check: IC50 of CN=S(=O)(Cc1ccccc1)Nc1ccc(Oc2ncccc2-c2ccnc(N[C@H]3CCCNC3)n2)c(F)c1F (stereo partly shown) [Compound 273] under 5 nM?
0 (no)

Quick check: IC50 of `O=S(=O)(Cc1ccccc1)Nc1ccc(Oc2ncccc2-c2ccnc(N[C@H]3CCCNC3)n2)c(F)c1` under 5 nM?
0 (no)

---

Measured IC50 of individual entries
Target: kinase domain of IRE1 alpha (His-tagged kinase dead construct KR, AA G547-L977, D688N) (Homo sapiens (Human), UniProt O75460, D688N)
Experiment: IRE1α TR-FRET competition binding assay
Details: competition with Kinase Tracer 236, 0.1 μM; one hour at room temperature
Structures can show the parent of a compound that is named as a salt.
The figure you give is taken to be in nM; do not add the unit.

O=S(=O)(Cc1ccccc1)Nc1c(F)cc(Oc2ncccc2-c2ccnc(NC3CC4CCCN(C4)C3)n2)c(F)c1F (single isomer, unassigned) [Compound 288] ... 1.1

Quick one: IC50 of CC(C)(F)C1CNCC(Nc2nccc(-c3cccnc3Oc3cc(F)c(NS(=O)(=O)Cc4ccccc4)c(F)c3F)n2)C1 (stereo not shown) [Compound 333, hydrochloride] ?
0.19

Quick one: IC50 of `O=S(=O)(Cc1cccnc1C(F)(F)F)Nc1c(F)cc(Oc2ncccc2-c2ccnc(N[C@@H]3CNC[C@@H](F)C3)n2)c(F)c1F` ?
0.3

Quick one: IC50 of `N#Cc1ccc(CS(=O)(=O)Nc2c(F)cc(Oc3ncccc3-c3ccnc(N[C@@H]4CNC[C@@H](F)C4)n3)c(F)c2F)c(F)c1` ?
0.8

---

Biological target: kinase domain of IRE1 alpha (His-tagged kinase dead construct KR, AA G547-L977, D688N) (Homo sapiens (Human), UniProt O75460, D688N)
Assay: IRE1α TR-FRET competition binding assay
Settings: competition with Kinase Tracer 236, 0.1 μM; one hour at room temperature
Counter-ions that a name gives are not always drawn.
Mark TRUE for IC50 under 10 nM, FALSE if at or over.

Example entries begin here.
CC(F)(F)C1CNCC(Nc2nccc(-c3cccnc3Oc3cc(F)c(NS(=O)(=O)Cc4ccccc4)c(F)c3F)n2)C1 (racemic) [Compound 337, hydrochloride] ... TRUE
O=S(=O)(Cc1ccccc1)Nc1ccc(Oc2ncccc2-c2ccnc(N[C@H]3CC[C@H](O)CC3)n2)c(F)c1F ... TRUE
O=S(=O)(CC1CC(F)(F)C1)Nc1ccc(Oc2ncccc2-c2ccnc(N[C@H]3CCCNC3)n2)c(F)c1F ... FALSE
O=S(=O)(CC1CCCC1)Nc1ccc(Oc2ncccc2-c2ccnc(N[C@H]3CCCNC3)n2)c(F)c1F ... TRUE
O=S(=O)(Cc1ccccc1)Nc1ccc(Oc2ncccc2-c2ccnc(N[C@@H]3CNCC(F)(F)C3)n2)c(F)c1F ... TRUE

Now look at this entry.
Quick check: IC50 of Cc1cc(NS(=O)(=O)Cc2ccccc2)cc(F)c1Oc1ncccc1-c1ccnc(N[C@H]2CC[C@H](N)CC2)n1 [Compound 119, hydrochloride] under 10 nM?
FALSE

---

Target: kinase domain of IRE1 alpha (His-tagged kinase dead construct KR, AA G547-L977, D688N) (Homo sapiens (Human), UniProt O75460, D688N)
Experiment: IRE1α TR-FRET competition binding assay
Details: competition with Kinase Tracer 236, 0.1 μM; one hour at room temperature
Structures can show the parent of a compound that is named as a salt.
Measured pIC50 of individual entries
Formally, pIC50 is defined as -log10 of the concentration c, with c in mol/L.

O=S(=O)(Nc1ccc(Oc2ncccc2-c2ccnc(N[C@H]3CCCNC3)n2)c(F)c1F)c1ccc(OC(F)(F)F)cc1 ... 7.59
O=S(=O)(CC1CCC1(F)F)Nc1ccc(Oc2ncccc2-c2ccnc(N[C@H]3CCCNC3)n2)c(F)c1F (stereo partly shown) [Compound 192, hydrochloride] ... 8.01
O=S(=O)(CC1(F)CC1)Nc1c(F)cc(Oc2ncccc2-c2ccnc(N[C@@H]3CNC[C@@H](F)C3)n2)c(F)c1F ... 8.46
CC(C)(CC#N)CS(=O)(=O)Nc1ccc(Oc2ncccc2-c2ccnc(N[C@H]3CCCNC3)n2)c(F)c1F ... 7.89
O=C(Nc1ccc(Oc2ncccc2-c2ccnc(N[C@H]3CCCNC3)n2)c(F)c1F)C1CC1 [Compound 147, hydrochloride] ... 6.68

Quick one: pIC50 of `N#Cc1ccccc1CS(=O)(=O)Nc1ccc(Oc2ncccc2-c2ccnc(N[C@H]3CCCNC3)n2)c(F)c1F` ?
8.54

Quick one: pIC50 of `CCC(F)(F)CS(=O)(=O)Nc1c(F)cc(Oc2ncc(F)cc2-c2ccnc(N[C@@H]3CNC[C@@H](F)C3)n2)c(F)c1F` ?
8.96

---

Target: kinase domain of IRE1 alpha (His-tagged kinase dead construct KR, AA G547-L977, D688N) (Homo sapiens (Human), UniProt O75460, D688N)
Test: IRE1α TR-FRET competition binding assay
Settings: competition with Kinase Tracer 236, 0.1 μM; one hour at room temperature
Counter-ions that a name gives are not always drawn.
recorded_endpoint: log10(IC50) (log10 of the value in nM)
Use the decimal logarithm of IC50 (nM).

O=S(=O)(Cc1ccccc1)Nc1ccc(Oc2ncccc2-c2ccnc(NC34CNCC3C4)n2)c(F)c1F (single isomer, unassigned) [Compound 185] ... 0.97
C[C@H](c1ccccc1)S(=O)(=O)Nc1c(F)cc(Oc2ncccc2-c2ccnc(N[C@@H]3CNC[C@@H](F)C3)n2)c(F)c1F (single isomer, unassigned) ... -0.10
N#Cc1ccc(CS(=O)(=O)Nc2c(F)cc(Oc3ncccc3-c3ccnc(N[C@@H]4CNC[C@@H](F)C4)n3)c(F)c2F)cc1 ... 0.63
COCC1CNCC(Nc2nccc(-c3cccnc3Oc3cc(F)c(NS(=O)(=O)Cc4ccccc4)c(F)c3F)n2)C1 (single isomer, unassigned) [Compound 329] ... 1.08
O=S(=O)(Cc1ccccn1)Nc1ccc(Oc2ncccc2-c2ccnc(N[C@H]3CCCNC3)n2)c(F)c1F ... 1.15

Quick one: log10(IC50) of O=S(=O)(Cc1ccccc1)Nc1c(F)cc(Oc2ncccc2-c2ccnc(N[C@H]3CCCNC3)n2)cc1F [Compound 152, hydrochloride] ?
0.59

Quick one: log10(IC50) of C[C@H]1CNC[C@@H](Nc2nccc(-c3cccnc3Oc3ccc(NS(=O)(=O)Cc4ccccc4)c(F)c3F)n2)C1 [Compound 111, hydrochloride] ?
0.64

Quick one: log10(IC50) of `O=S(=O)(Cc1cccc(C(F)(F)F)c1)Nc1c(F)cc(Oc2ncccc2-c2ccnc(N[C@@H]3CNC[C@@H](F)C3)n2)c(F)c1F` ?
-0.70

Quick one: log10(IC50) of `O=S(=O)(Nc1ccc(Oc2ncccc2-c2ccnc(N[C@H]3CCCNC3)n2)c(F)c1F)c1cccc(OC(F)(F)F)c1` ?
0.87

Quick one: log10(IC50) of `Cc1ccc(CS(=O)(=O)Nc2c(F)cc(Oc3ncccc3-c3ccnc(N[C@@H]4CNC[C@@H](F)C4)n3)c(F)c2F)c(F)c1` ?
-0.52

---

Target: kinase domain of IRE1 alpha (His-tagged kinase dead construct KR, AA G547-L977, D688N) (Homo sapiens (Human), UniProt O75460, D688N)
Assay: IRE1α TR-FRET competition binding assay
Settings: competition with Kinase Tracer 236, 0.1 μM; one hour at room temperature
Where a name gives a salt, the structure may show the parent alone.
recorded_endpoint: IC50
Field: value (include unit after the number)

# annotated cases, reported IC50 shown
Cc1c(NC(=O)Cc2ccc(Cl)cc2)ccc(Oc2ncccc2-c2ccnc(N[C@H]3CCCNC3)n2)c1C ... 170 nM
CCC(F)(F)CS(=O)(=O)Nc1c(F)cc(Oc2nc(C)ccc2-c2ccnc(N[C@@H]3CNC[C@@H](F)C3)n2)c(F)c1F ... 0.54 nM
O=S(=O)(Cc1ccc(F)cc1)Nc1c(F)cc(Oc2ncccc2-c2ccnc(N[C@@H]3CNCC(CF)C3)n2)c(F)c1F (stereo in doubt) ... 0.35 nM

Quick one: IC50 of `N#Cc1cccc(CS(=O)(=O)Nc2ccc(Oc3ncccc3-c3ccnc(N[C@H]4CCCNC4)n3)c(F)c2F)c1` ?
6.4 nM

Quick one: IC50 of `CN(C)CCNc1nccc(-c2cccnc2Oc2ccc(NS(=O)(=O)Cc3ccccc3)c(F)c2F)n1` ?
57 nM

Quick one: IC50 of O=S(=O)(Cc1ccccc1)Nc1cc(F)c(Oc2ncccc2-c2ccnc(N[C@H]3CCCNC3)n2)c(F)c1F [Compound 156, hydrochloride] ?
4.6 nM

Quick one: IC50 of `Cc1cc(NS(=O)(=O)Cc2ccccc2)c(F)cc1Oc1ncccc1-c1ccnc(N[C@H]2CCCNC2)n1` ?
5.1 nM
